Molecular target: T1, recombinant human TL1A (human, UniProt O95150 71-251)
T1 chain: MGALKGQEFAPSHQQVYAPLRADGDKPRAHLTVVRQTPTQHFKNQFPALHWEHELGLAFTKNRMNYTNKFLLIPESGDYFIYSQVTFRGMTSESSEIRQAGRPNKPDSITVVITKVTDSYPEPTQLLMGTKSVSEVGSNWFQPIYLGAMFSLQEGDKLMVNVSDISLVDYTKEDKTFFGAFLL
Experiment: cell-based or functional assay
endpoint-label: TF-1 NF-κB reporter cell bioassay, Bioactivity relative to TL1A-0002 (fold)
State the answer as a number, implicitly in fold.

Fill in: TF-1 NF-κB reporter cell bioassay, Bioactivity relative to TL1A-0002 of TL1A-0274 (antibody, human IgG1, kappa, V domains shown, human IgG1 effector-function-minimized/kappa) VH: QVQLVQSGAEVKKPGASVKVSCKASGYDFSYYGISWVRQAPGQGLEWMGWISTYNTGTHYAPSLQGRVTMTTDTSTSTAYMELRSLRSDDTAVYYCARESYYGSGAFRGGMDVWGQGTTVTVSS VL: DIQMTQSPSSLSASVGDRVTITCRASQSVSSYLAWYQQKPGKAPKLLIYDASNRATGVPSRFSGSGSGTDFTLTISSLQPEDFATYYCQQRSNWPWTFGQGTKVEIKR is ___
0.6

Fill in: TF-1 NF-κB reporter cell bioassay, Bioactivity relative to TL1A-0002 of TL1A-0288 (antibody, human IgG1, kappa, V domains shown, human IgG1 effector-function-minimized/kappa; 96 used) VH: QVQLVQSGAEVKKPGASVKVSCKASGYDFTYYGVSWVRQAPGQGLEWMGWISTYNTGTHYAPSLQGRVTMTTDTSTSTAYMELRSLRSDDTAVYYCARESYYGSGAFRGGMDVWGQGTTVTVSS VL: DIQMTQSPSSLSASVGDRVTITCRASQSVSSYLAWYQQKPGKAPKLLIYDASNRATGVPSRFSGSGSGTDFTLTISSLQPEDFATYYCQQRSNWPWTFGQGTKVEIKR is ___
2.8

Fill in: TF-1 NF-κB reporter cell bioassay, Bioactivity relative to TL1A-0002 of TL1A-0275 (antibody, human IgG1, kappa, V domains shown, human IgG1 effector-function-minimized/kappa) VH: QVQLVQSGAEVKKPGASVKVSCKASGYDFSYYGISWVRQAPGQGLEWMGWISTYNTGTHYAPSLQGRVTMTTDTSTSTAYMELRSLRSDDTAVYYCARESYYGSGAHRGGMDVWGQGTTVTVSS VL: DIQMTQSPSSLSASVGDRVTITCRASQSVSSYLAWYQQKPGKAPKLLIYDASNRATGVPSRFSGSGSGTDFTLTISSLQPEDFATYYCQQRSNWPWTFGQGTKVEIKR is ___
0.7
